Reference for the values: patent US20260007684A1

test target: human NLRP3 (Homo sapiens (Human))
Sequence (Q96P20 whole entry): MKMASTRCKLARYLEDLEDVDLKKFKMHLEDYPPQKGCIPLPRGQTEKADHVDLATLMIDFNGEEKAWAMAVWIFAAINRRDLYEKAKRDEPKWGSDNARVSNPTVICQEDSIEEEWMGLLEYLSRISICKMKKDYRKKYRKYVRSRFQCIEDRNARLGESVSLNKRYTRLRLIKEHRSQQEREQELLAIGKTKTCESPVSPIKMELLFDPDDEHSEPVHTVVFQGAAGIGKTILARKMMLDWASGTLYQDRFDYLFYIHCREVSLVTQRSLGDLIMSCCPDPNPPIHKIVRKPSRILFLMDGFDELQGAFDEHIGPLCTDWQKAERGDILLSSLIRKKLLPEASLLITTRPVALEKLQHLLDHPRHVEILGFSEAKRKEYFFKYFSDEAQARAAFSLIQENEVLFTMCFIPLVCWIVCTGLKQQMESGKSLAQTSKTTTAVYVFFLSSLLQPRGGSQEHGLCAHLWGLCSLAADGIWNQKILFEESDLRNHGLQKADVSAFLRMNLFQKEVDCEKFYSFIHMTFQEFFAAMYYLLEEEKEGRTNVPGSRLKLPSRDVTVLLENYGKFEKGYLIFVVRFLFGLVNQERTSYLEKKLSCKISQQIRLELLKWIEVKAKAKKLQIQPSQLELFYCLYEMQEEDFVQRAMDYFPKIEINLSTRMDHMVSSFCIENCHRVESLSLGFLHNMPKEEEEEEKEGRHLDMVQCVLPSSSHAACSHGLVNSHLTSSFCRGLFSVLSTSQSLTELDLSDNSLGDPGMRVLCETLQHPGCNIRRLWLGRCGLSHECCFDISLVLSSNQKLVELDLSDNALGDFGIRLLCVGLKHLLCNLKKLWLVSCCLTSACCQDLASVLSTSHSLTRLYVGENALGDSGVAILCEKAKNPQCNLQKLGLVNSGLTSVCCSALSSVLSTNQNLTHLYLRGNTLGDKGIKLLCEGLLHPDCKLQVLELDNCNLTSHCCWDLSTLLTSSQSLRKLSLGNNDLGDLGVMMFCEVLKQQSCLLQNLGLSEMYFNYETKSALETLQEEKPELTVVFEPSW
test description: Human Whole Blood (hWB) NLRP3 Assay (LPS/ATP, IL-1β)
Type: cell-based
applied conditions: hWB IC50, human whole blood, LPS/ATP, IL-1β
measurement label: IC50

Worked examples, 3 compounds total:
C[C@@H]1C[C@@H](NC(=O)C2(c3ccc(C(F)(F)F)cc3F)CC2)[C@H]2CC[C@@H]1N2c1nnn[nH]1 [84A*]    < 1000 nM
C[C@@H]1C[C@H]2CC[C@@H]([C@H](NC(=O)C3(c4ccc(C(F)(F)F)cc4)CC3)C1)N2c1nnn[nH]1 [104C*]    < 1000 nM
O=C(N[C@@H]1CCC[C@@H]2CC[C@H]1N2c1nnn[nH]1)C1(c2ccc(C3CC3)cc2O)CC1 [93A*]    2000 to 3000 nM

Here's the next entry for you.
The value of IC50 recorded for C[C@@H]1C[C@@H](NC(=O)C2(c3ccc(Cl)cc3)CC2)[C@H]2CC[C@@H]1N2c1nnn[nH]1 [80A*] when tested on human NLRP3 (Homo sapiens (Human)) reads < 1000 nM
